test-system: FFA2/GPR43 (Homo sapiens)
Sequence (O15552 whole entry): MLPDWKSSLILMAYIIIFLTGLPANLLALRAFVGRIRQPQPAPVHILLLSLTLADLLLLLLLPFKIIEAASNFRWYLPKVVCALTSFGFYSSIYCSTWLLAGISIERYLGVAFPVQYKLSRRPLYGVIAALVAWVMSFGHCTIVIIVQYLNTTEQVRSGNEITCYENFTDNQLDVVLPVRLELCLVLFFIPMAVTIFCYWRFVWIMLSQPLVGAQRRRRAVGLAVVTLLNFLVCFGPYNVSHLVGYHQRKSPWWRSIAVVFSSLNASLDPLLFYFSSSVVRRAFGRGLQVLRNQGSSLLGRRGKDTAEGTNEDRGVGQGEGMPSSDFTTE
method-summary: forskolin-stimulated cAMP accumulation assay, Flp-In-293 cells stably expressing FFA2/GPR43
conditions: inhibition of forskolin-stimulated cAMP; mean ± SD
value-kind: EC50 (nM)

Below, each entry is followed by its recorded EC50 result.
Cc1cc(=O)oc2[nH]c(=S)[nH]c(=O)c12    19000
O=c1cc(CCCCCl)c2c(=O)[nH]c(=S)[nH]c2o1    2500
CCc1cc(=O)oc2[nH]c(=S)[nH]c(=O)c12    920

a: O=c1[nH]c(=O)c2c(CCCCCl)cc(=O)oc2[nH]1
b: CCCCc1cc(=O)oc2[nH]c(=S)[nH]c(=O)c12
(Q) # query: argmin of EC50 over a and b Bench note: the answer is the label of the chosen record.
(A) a
(a: 380 nM, b: 740 nM)
